Data credit: paper PMC8380212

# TEST NAME: Determination of logD values (1-octanol / PBS)
# Type: physicochemical
# ASSAY CONTEXT: 1-octanol / phosphate buffered saline, pH 7.4; non-radioactive reference standards, 1-octanol and water phase, HPLC analysis and peak integration (asterisk)

# COMPOUND, logD
data = [
    ("CN(CCCN1CCN(C(=O)c2ccc([N+](C)(C)C)nc2)CC1)c1ccc2nccc(C(=O)NCC(=O)N3CC(F)(F)C[C@H]3C#N)c2c1 [FAPI-72]", 1.2),
    ("C[N+](C)(C)c1ccc(C(=O)N2CCN(CCCOc3ccc4nccc(C(=O)NCC(=O)N5CC(F)(F)C[C@H]5C#N)c4c3)CC2)cn1 [FAPI-73]", 1.13),
]
